Consider the following molecules and their measured Specific Activity, Culture readings.
- System: culture of Flammulina velutipes strain IFO 30601
- test-summary: Decolorization / oxidative degradation / oxidative polymerization of pigments and lignin by the culture
- Format: biochemical
- details: reaction pH 7.0, 25° C.; without sign = degradation or decolorization, minus = polymerization activity
Reply numerically in U/mg Protein, unit not repeated.

Examples with answers:
CCN(CC)c1ccc(C(=C2C=CC(=[N+](CC)Cc3cccc(S(=O)(=O)[O-])c3)C=C2)c2ccc(N(CC)Cc3cccc(S(=O)(=O)[O-])c3)cc2)cc1.[Na+] | 0.12
Cc1cc(C)c(S(=O)(=O)[O-])c(C)c1Nc1ccc(Nc2c(C)cc(C)c(S(=O)(=O)[O-])c2C)c2c1C(=O)c1ccccc1C2=O.[Na+].[Na+] | 0.30

Lab note: next molecule to report on.
Specific Activity, Culture lookup needed for O=C1C=C(O)C(=O)c2ccccc21 , thanks.
−0.18
